- Tested on: Radical scavenging activity
- experimentalProtocol: Antioxidant activity assessed as DPPH radical scavenging activity after 30 mins by spectrophotometry
- Assay type: functional
Entries and their IC50

Solved cases (5 shown):
Please list IC50 recorded for the compound O=C1O[C@H]([C@@H](O)CO)C(O)=C1O [ASCORBIC ACID]
< 20 µM

Please list IC50 recorded for the compound `C=C1CC[C@]2(C(=O)O[C@@H]3O[C@H](CO)[C@@H](O)[C@H](O)[C@H]3O)CC[C@]3(C)C(=CC[C@@H]4[C@@]5(C)CC[C@H](O[C@@H]6O[C@H](C(=O)O)[C@@H](O)[C@H](O)[C@H]6O)[C@@](C)(CO)[C@@H]5CC[C@]43C)[C@@H]2C1`
390 µM

Please list IC50 recorded for the compound `CC1(C)CC[C@]2(C(=O)O[C@@H]3O[C@H](CO)[C@@H](O)[C@H](O)[C@H]3O)CC[C@]3(C)C(=CC[C@@H]4[C@@]5(C)CC[C@H](O[C@@H]6O[C@H](C(=O)O)[C@@H](O)[C@H](O)[C@H]6O)[C@@](C)(C=O)[C@@H]5CC[C@]43C)[C@@H]2C1`
> 500 µM

Please list IC50 recorded for the compound `CC1(C)CC[C@]2(C(=O)O)CC[C@]3(C)C(=CC[C@@H]4[C@@]5(C)CC[C@H](O[C@@H]6O[C@H](C(=O)O)[C@@H](O)[C@H](O)[C@H]6O)[C@@](C)(C=O)[C@@H]5CC[C@]43C)[C@@H]2C1`
> 500 µM

Please list IC50 recorded for the compound Cc1cc(C(C)(C)C)c(O)c(C(C)(C)C)c1 [BUTYLATED HYDROXYTOLUENE]
< 200 µM

More entries:
Please list IC50 recorded for the compound `C=C1CC[C@]2(C(=O)O[C@@H]3O[C@H](CO)[C@@H](O)[C@H](O)[C@H]3O)CC[C@]3(C)C(=CC[C@@H]4[C@@]5(C)CC[C@H](O[C@@H]6O[C@H](C(=O)O)[C@@H](O)[C@H](O)[C@H]6O)[C@@](C)(C=O)[C@@H]5CC[C@]43C)[C@@H]2C1`
> 500 µM
